- System: Amaranthus retroflexus
- measurement notes: Post-emergence herbicidal action against AMARE
- Assay type: in vivo
- stated conditions: 5 g/ha, visual assessment about 3 weeks after treatment
outcome measure: Post-emergence action against AMARE in % (%)
Enter your answer as a number in %; do not include the unit.

For orientation, consider the following solved cases.
CCN(C)C(=O)c1c(Br)ccc(C(=O)Nc2nnnn2CC)c1Cl : 100
CCN(C)C(=O)c1c(C(F)F)ccc(C(=O)Nc2nnnn2CC)c1C : 90
CCn1nnnc1NC(=O)c1ccc(C(F)(F)F)c(C(=O)N(C)CC2CC2)c1Cl : 100
CCN(CC)C(=O)c1c(C(F)(F)F)ccc(C(=O)Nc2nnnn2CC)c1Cl : 80
CN(C(=O)c1c(C(F)F)ccc(C(=O)Nc2nnnn2C)c1Cl)C1CC1 : 100

Measured Post-emergence action against AMARE in %, `CCn1nnnc1NC(=O)c1ccc(C(F)(F)F)c(C(=O)N2CCCC2)c1Cl` : 100

Lab note: measured Post-emergence action against AMARE in % of `CCCn1nnnc1NC(=O)c1ccc(C(F)(F)F)c(C(=O)n2cccn2)c1Cl` was 90

Memo: `Cc1ccccc1N(C)C(=O)c1c(Cl)ccc(C(=O)Nc2nnnn2C)c1Cl` , reported Post-emergence action against AMARE in %: 100

Reported Post-emergence action against AMARE in % for `CCCn1nnnc1NC(=O)c1ccc(C(F)(F)F)c(C(=O)N(C)CC2CC2)c1Cl` was 100

###

- System: Amaranthus retroflexus
- measurement notes: Pre-emergence herbicidal action against AMARE
- Type: in vivo
- stated conditions: 20 g/ha; visual score after 3 weeks vs untreated controls
outcome measure: Pre-emergence action against AMARE (%)
Entry rule: numbers only, all in %.

Observe how each entry below is paired with its result.
CCN(CC)C(=O)c1c(Br)ccc(C(=O)Nc2nnnn2CC)c1Cl [Example 2-200] : 100
CCN(C)C(=O)c1c(C(F)F)ccc(C(=O)Nc2nnnn2CC)c1C [Example 2-51] : 90

Proceed to the following item.
Cn1nnnc1NC(=O)c1ccc(C(F)F)c(C(=O)N(C2CC2)C2CC2)c1Cl [Example 1-175] tested on Amaranthus retroflexus gave Pre-emergence action against AMARE: 80

###

- System: Veronica persica
- measurement notes: Post-emergence herbicidal action against VERPE
- Format: in vivo
- stated conditions: 20 g/ha, visual assessment about 3 weeks after treatment
outcome measure: Post-emergence action against VERPE in % (%)
Just the number in %, nothing appended.

Illustrative cases are given below, each with its answer.
CCN(C)C(=O)c1c(C(F)F)ccc(C(=O)Nc2nnnn2C)c1Cl : 80
CCn1nnnc1NC(=O)c1ccc(C(F)F)c(C(=O)N(C)C)c1C : 90
Cn1nnnc1NC(=O)c1ccc(C(F)(F)F)c(C(=O)N2CCCC2)c1Cl : 90

Value of Post-emergence action against VERPE in % reported for the molecule `CCN(CC)C(=O)c1c(C(F)F)ccc(C(=O)Nc2nnnn2C)c1C` is 90

Reported Post-emergence action against VERPE in % of `CCN(C(=O)c1c(C(F)F)ccc(C(=O)Nc2nnnn2CC)c1Cl)C1CC1` : 80

Post-emergence action against VERPE in % in this record for `CCN(CC)C(=O)c1c(C(F)F)ccc(C(=O)Nc2nnnn2C)c1Cl` : 80

# molecule `Cc1c(C(=O)Nc2nnnn2C)ccc(C(F)(F)F)c1C(=O)N(C)CC(F)F` ; its Post-emergence action against VERPE in % = 80

The recorded Post-emergence action against VERPE in % for entry `CCn1nnnc1NC(=O)c1ccc(C(F)F)c(C(=O)N(C)C2CC2)c1Cl` equals 80

###

Catalogue of Post-emergence action against AMARE in % values
- Test system: Amaranthus retroflexus
- measurement notes: Post-emergence herbicidal action against AMARE
- Format: in vivo
- stated conditions: 5 g/ha, visual assessment about 3 weeks after treatment
State the answer as a number, implicitly in %.

Examples from the recorded data:
CCn1nnnc1NC(=O)c1ccc(C(F)(F)F)c(C(=O)n2cccn2)c1Cl : 100
Cn1nnnc1NC(=O)c1ccc(C(F)(F)F)c(C(=O)N(C2CC2)C2CC2)c1Cl : 90
CCN(CC)C(=O)c1c(C(F)F)ccc(C(=O)Nc2nnnn2C)c1C : 100

# molecule `CCN(C)C(=O)c1c(Br)ccc(C(=O)Nc2nnnn2C)c1Cl` ; its Post-emergence action against AMARE in % = 100

The molecule identified as `CCn1nnnc1NC(=O)c1ccc(C(F)F)c(C(=O)N(C)CC(F)F)c1Cl` registered its Post-emergence action against AMARE in % at 100

`CCn1nnnc1NC(=O)c1ccc(C(F)(F)F)c(C(=O)N(C2CC2)C2CC2)c1Cl` yielded Post-emergence action against AMARE in % of 90

// Post-emergence action against AMARE in % value for `CCn1nnnc1NC(=O)c1ccc(C(F)F)c(C(=O)N(C)C)c1C` : 100

So, `CCn1nnnc1NC(=O)c1ccc(C(F)F)c(C(=O)N(C)C)c1Cl` ? Its Post-emergence action against AMARE in % was 90

###

- Tested on: Veronica persica
- measurement notes: Post-emergence herbicidal action against VERPE
- Assay type: in vivo
- stated conditions: 20 g/ha, visual assessment about 3 weeks after treatment
outcome measure: Post-emergence action against VERPE in % (%)
Answer format: numeric, % implied, no suffix.

Cc1c(C(=O)Nc2nnnn2C)ccc(C(F)F)c1C(=O)N(C)C [Example 1-50] : 80
CN(CC(F)F)C(=O)c1c(C(F)F)ccc(C(=O)Nc2nnnn2C)c1Cl [Example 1-159] : 90
CCN(C(=O)c1c(C(F)(F)F)ccc(C(=O)Nc2nnnn2C)c1Cl)C1CC1 [Example 1-136] : 80
CCN(CC)C(=O)c1c(C(F)F)ccc(C(=O)Nc2nnnn2CC)c1C [Example 2-59] : 90
CCn1nnnc1NC(=O)c1ccc(C(F)(F)F)c(C(=O)N(C)CC2CC2)c1Cl [Example 2-126] : 80

Memo: CCn1nnnc1NC(=O)c1ccc(C(F)(F)F)c(C(=O)N2CCCC2)c1Cl [Example 2-152] , reported Post-emergence action against VERPE in %: 80

Quick note, Post-emergence action against VERPE in % for CN(C(=O)c1c(Cl)ccc(C(=O)Nc2nnnn2C)c1Cl)c1ccccc1 [Example 1-398] landed at 80

###

- Tested on: Amaranthus retroflexus
- measurement notes: Post-emergence herbicidal action against AMARE
- Type: in vivo
- stated conditions: 5 g/ha, visual assessment about 3 weeks after treatment
- Procedure: Seeds of monocotyledonous and dicotyledonous weed and crop plants are laid out in sandy loam soil in wood-fiber pots, covered with soil and cultivated in a greenhouse under good growth conditions. 2 to 3 weeks after sowing, the test plants are treated at the one-leaf stage. […]
outcome measure: Post-emergence action against AMARE in % (%)
The reply should be a number in %, with the unit left off.

CCn1nnnc1NC(=O)c1ccc(C(F)F)c(C(=O)N(C)C2CC2)c1Cl [Example 2-156] : 100
CCN(C(=O)c1c(C(F)F)ccc(C(=O)Nc2nnnn2CC)c1Cl)C1CC1 [Example 2-167] : 100
Cc1c(C(=O)Nc2nnnn2C)ccc(C(F)F)c1C(=O)N(C)C [Example 1-50] : 90

The molecule listed as CCn1nnnc1NC(=O)c1ccc(C(F)(F)F)c(C(=O)N(C)C2CC2)c1C [Example 2-21] has a reported Post-emergence action against AMARE in % of 100

Kindly note the recorded Post-emergence action against AMARE in % for CCN(CC)C(=O)c1c(C(F)F)ccc(C(=O)Nc2nnnn2CC)c1C [Example 2-59] , which is 100

So for CN(C)C(=O)c1c(C(F)F)ccc(C(=O)Nc2nnnn2C)c1Cl [Example 1-154] , the logged Post-emergence action against AMARE in % turned out to be 90

Reported Post-emergence action against AMARE in % for CCn1nnnc1NC(=O)c1ccc(C(F)(F)F)c(C(=O)N(C)C2CC2)c1Cl [Example 2-125] was 90

###

- System: Amaranthus retroflexus
- measurement notes: Post-emergence herbicidal action against AMARE
- Type: in vivo
- stated conditions: 5 g/ha, visual assessment about 3 weeks after treatment
# Post-emergence action against AMARE in % annotations
Reply with just the number (in %).

Consider the reported Post-emergence action against AMARE in % for these compounds:
CCn1nnnc1NC(=O)c1ccc(C(F)F)c(C(=O)N(C2CC2)C2CC2)c1Cl [Example 2-175] : 100
CN(CC1CC1)C(=O)c1c(C(F)(F)F)ccc(C(=O)Nc2nnnn2C)c1Cl [Example 1-126] : 100
CCN(C)C(=O)c1c(C(F)(F)F)ccc(C(=O)Nc2nnnn2C)c1Cl [Example 1-124] : 100
CN(C)C(=O)c1c(C(F)(F)F)ccc(C(=O)Nc2nnnn2C)c1Cl [Example 1-123] : 100

Per the reported Amaranthus retroflexus data, Cn1nnnc1NC(=O)c1ccc(C(F)F)c(C(=O)N(C2CC2)C2CC2)c1Cl [Example 1-175] has Post-emergence action against AMARE in % of 100

Item: Cc1c(C(=O)Nc2nnnn2C)ccc(C(F)(F)F)c1C(=O)N(C1CC1)C1CC1 [Example 1-40] | System: Amaranthus retroflexus | Post-emergence action against AMARE in %: 80

The compound CCn1nnnc1NC(=O)c1ccc(C(F)(F)F)c(C(=O)N(C)C)c1C [Example 2-19] , tested on Amaranthus retroflexus, showed Post-emergence action against AMARE in % of 80
